Below: a set of entries, each annotated with reported MRGPRX4 activation, fluorescence change (dF/F0), Average.
biological target: MRGPRX4 (Homo sapiens, UniProt Q96LA9); test: MRGPRX4 activation, Fluo-8 Ca2+ FLIPR assay in HEK293T cells stably expressing MRGPRX4; format: cell-based; conditions: Conc. (Log[M]) −6.9
Sequence (Q96LA9 whole entry): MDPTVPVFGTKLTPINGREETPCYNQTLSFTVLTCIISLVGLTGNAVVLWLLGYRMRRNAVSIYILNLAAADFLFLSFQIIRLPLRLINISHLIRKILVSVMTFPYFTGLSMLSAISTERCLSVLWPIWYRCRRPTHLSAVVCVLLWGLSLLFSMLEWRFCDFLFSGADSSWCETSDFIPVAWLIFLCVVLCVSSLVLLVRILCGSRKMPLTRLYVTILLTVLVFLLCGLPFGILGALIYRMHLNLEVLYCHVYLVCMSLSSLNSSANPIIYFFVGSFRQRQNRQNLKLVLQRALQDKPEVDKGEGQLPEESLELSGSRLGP
Answer field: number only, no words.

Solved cases (5 shown):
I would be grateful if you could share the reported MRGPRX4 activation, fluorescence change (dF/F0), Average for CC[C@H]1[C@@H](O)[C@@H]2[C@H](CC[C@]3(C)[C@@H]([C@H](C)CCNC(=O)NS(=O)(=O)c4cc(F)cc(F)c4)CC[C@@H]23)[C@@]2(C)CCCC[C@@H]12 . 0.013

Proceed to CC[C@H]1[C@@H](O)[C@@H]2[C@H](CC[C@]3(C)[C@@H]([C@H](C)CCNC(=O)NS(=O)(=O)c4ccc(C(C)(C)C#N)cc4)CC[C@@H]23)[C@@]2(C)CCCC[C@@H]12 0.011

Proceed to CC[C@H]1[C@@H](O)[C@@H]2[C@H](CC[C@]3(C)[C@@H]([C@H](C)CCNC(=O)NS(=O)(=O)c4ccc(C(C)(CO)CO)cc4)CC[C@@H]23)[C@@]2(C)CCCC[C@@H]12 0.016

Next entry: CC[C@H]1[C@@H](O)[C@@H]2[C@H](CC[C@]3(C)[C@@H]([C@H](C)CCNC(=O)NS(=O)(=O)c4ccc(C(C)(C)CN)cc4)CC[C@@H]23)[C@@]2(C)CCCC[C@@H]12 0.011

Quick one: CC[C@H]1[C@@H](O)[C@@H]2[C@H](CC[C@]3(C)[C@@H]([C@H](C)CCNC(=O)NS(=O)(=O)c4ccc(C(C)(C)C(N)=O)cc4)CC[C@@H]23)[C@@]2(C)CCCC[C@@H]12 0.013

Attention now shifts to the item below.
Need MRGPRX4 activation, fluorescence change (dF/F0), Average of CC[C@H]1[C@@H](O)[C@@H]2[C@H](CC[C@]3(C)[C@@H]([C@H](C)CCNC(=O)NS(=O)(=O)c4ccc(C5(CO)CCCC5)cc4)CC[C@@H]23)[C@@]2(C)CCCC[C@@H]12 , thanks. 0.018
